# MIC values compiled below
- Tested on: Klebsiella aerogenes
- ASSAY_SUMMARY: Antibacterial activity against tolC-deficient Enterobacter aerogenes EA298 assessed as growth inhibition after 18 hrs by two-fold serial dilution method
- Type: functional
- SETUP_CONDITIONS: EA298, 18 h
*1 amine or outer side, *2 acyl side, *3 side chain or, on linkers, in order; H or OH if unused. Where a SMILES comes first, the peptide text is derived from it. The star is where a group is joined. X2 = c1ccc(CN(Cc2ccccn2)Cc2cccc(N*)n2)nc1; Glutaryl = O=C(CCCC(=O)[*:2])[*:1]; OBn = c1ccc(CO*)cc1
// units = µM; emit number, no label

N=C(N)NCCC[C@H](NC(=O)CCCC(=O)Nc1cccc(CN(Cc2ccccn2)Cc2ccccn2)n1)C(=O)N[C@@H](Cc1c[nH]c2ccccc12)C(=O)N[C@@H](CCCNC(=N)N)C(=O)N[C@@H](Cc1c[nH]c2ccccc12)C(=O)N[C@@H](CCCNC(=N)N)C(=O)N[C@@H](Cc1c[nH]c2ccccc12)C(=O)OCc1ccccc1 ({X2-Glutaryl}-RWRWRW-OBn): 8

# evaluate next
What value of MIC on Klebsiella aerogenes does N=C(N)NCCC[C@H](NC(=O)CCCC(=O)Nc1cccc(CN(Cc2ccccn2)Cc2ccccn2)n1)C(=O)N[C@@H](Cc1c[nH]c2ccccc12)C(=O)N[C@@H](CCCNC(=N)N)C(=O)N[C@@H](Cc1c[nH]c2ccccc12)C(=O)OCc1ccccc1 ({X2-Glutaryl}-RWRW-OBn) have?
8

###

- Test system: Klebsiella aerogenes
- ASSAY_SUMMARY: Antibacterial activity against tolC-deficient Enterobacter aerogenes EA298 assessed as growth inhibition after 18 hrs by two-fold serial dilution method
- Type: functional
- SETUP_CONDITIONS: EA298, 18 h
*1 amine or outer side, *2 acyl side, *3 side chain or, on linkers, in order; H or OH if unused. Where a SMILES comes first, the peptide text is derived from it. The star is where a group is joined. X1 = c1ccc(CN(Cc2ccccc2)Cc2cccc(N*)c2)cc1; X2 = c1ccc(CN(Cc2ccccn2)Cc2cccc(N*)n2)nc1; Glutaryl = O=C(CCCC(=O)[*:2])[*:1]; OBn = c1ccc(CO*)cc1
OBSERVED_PROPERTY: MIC
Kindly write the number and append the unit.

Sample records with MIC:
N=C(N)NCCC[C@H](NC(=O)[C@H](Cc1c[nH]c2ccccc12)NC(=O)CCCC(=O)Nc1cccc(CN(Cc2ccccn2)Cc2ccccn2)n1)C(=O)N[C@@H](Cc1c[nH]c2ccccc12)C(=O)N[C@@H](CCCNC(=N)N)C(=O)N[C@@H](Cc1c[nH]c2ccccc12)C(=O)N[C@@H](CCCNC(=N)N)C(=O)OCc1ccccc1 ({X2-Glutaryl}-WRWRWR-OBn): 8 µM
CCCCC[C@H](CC(=O)NO)C(=O)N[C@H](C(=O)N1CCC[C@H]1CO)C(C)C [ACTINONIN]: 32 µM
CC(=O)N[C@@H](CCCNC(=N)N)C(=O)N[C@@H](Cc1c[nH]c2ccccc12)C(=O)N[C@@H](CCCNC(=N)N)C(=O)N[C@@H](Cc1c[nH]c2ccccc12)C(=O)OCc1ccccc1 (Ac-RWRW-OBn): 64 µM
N=C(N)NCCC[C@H](NC(=O)[C@H](Cc1c[nH]c2ccccc12)NC(=O)CCCC(=O)Nc1cccc(CN(Cc2ccccn2)Cc2ccccn2)n1)C(=O)N[C@@H](Cc1c[nH]c2ccccc12)C(=O)N[C@@H](CCCNC(=N)N)C(=O)OCc1ccccc1 ({X2-Glutaryl}-WRWR-OBn): 4 µM
O=C(O)c1cn(C2CC2)c2cc(N3CCNCC3)c(F)cc2c1=O [CIPROFLOXACIN]: 8 µM

Recorded MIC for N=C(N)NCCC[C@H](NC(=O)CCCC(=O)Nc1cccc(CN(Cc2ccccc2)Cc2ccccc2)c1)C(=O)N[C@@H](Cc1c[nH]c2ccccc12)C(=O)N[C@@H](CCCNC(=N)N)C(=O)N[C@@H](Cc1c[nH]c2ccccc12)C(=O)OCc1ccccc1 ({X1-Glutaryl}-RWRW-OBn) , please?
64 µM

Data request, read-out MIC, for CN1CCN(c2c(F)cc3c(=O)c(C(=O)O)cn(CCF)c3c2F)CC1 [FLEROXACIN]
16 µM
